Provide the reported pKd of each item.
- target: T1, NativeRPtag(large)_with_Tags_and_Cys (Thermoanaerobacter tengcongensis)
- T1 construct: Unlabeled in anisotropy assays; coupled through the engineered N-terminal Cys to SulfoLink agarose or maleimide plates in column, pull-down and ELISA assays
- T1 chain: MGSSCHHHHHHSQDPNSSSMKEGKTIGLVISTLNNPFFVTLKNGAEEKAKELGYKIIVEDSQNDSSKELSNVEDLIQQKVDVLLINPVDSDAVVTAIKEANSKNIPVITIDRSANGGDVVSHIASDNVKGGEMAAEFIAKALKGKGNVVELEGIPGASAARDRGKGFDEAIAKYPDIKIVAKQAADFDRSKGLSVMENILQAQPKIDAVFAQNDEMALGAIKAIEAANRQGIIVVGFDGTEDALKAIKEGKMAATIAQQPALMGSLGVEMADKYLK
- assayOverview: fluorescence anisotropy; DTT (100 mM)
No end group written: not given here. *: point of attachment. RhodamineB = CCN(CC)c1ccc2c(-c3ccccc3C(=O)*)c3ccc(=[N+](CC)CC)cc-3oc2c1
One number for each entry, as −log10 of the molar value.

binder	measuredParameter	observedValue
RhodamineB-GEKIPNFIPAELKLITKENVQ (Synthetic peptide) [native RPtag(small)]	pKd	9.29

Next:
Challenge: Name the reported pKd value associated with the binder RhodamineB-KIANFIPAELKLITKANVQ (also: also used unlabeled as competitor, Rhodamine labeled in the Kd assays; also called RPtag(small) (tight)) [RPtag(small) Nd2, p5a, e18a]
Response given: 10.14
